Molecular target: T1, Notch2Long (Notch2 EGF6-EGF12) (human, UniProt Q04721 219-418, biotin on the N-terminal Avi tag (enzymatic))
T1 construct: also called N2L protein; hNotch2; not shown: Avi tag, N-terminal, kept
T1 sequence (looked up): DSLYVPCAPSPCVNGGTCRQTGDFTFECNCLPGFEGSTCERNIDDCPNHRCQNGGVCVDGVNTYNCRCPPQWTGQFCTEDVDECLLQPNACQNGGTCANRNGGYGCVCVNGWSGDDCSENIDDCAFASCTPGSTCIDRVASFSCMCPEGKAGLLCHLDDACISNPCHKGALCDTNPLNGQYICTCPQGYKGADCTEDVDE
Test: SPR
Conditions: both partners purified
pKd: −log10 of the molar value.
Outcome measure: pKd

> print(dat)
                                     binder  recorded.result
1  GCIRSHLWCPPSASCLAGCVCEVWIQCG (designed binder) [N2L.EET31.32.70]             6.00
2  GCIKSHLWCDPRKDCEAGCICEVWIQCG (designed binder) [N2L.EET31.43.75]             6.39
3  GCIKSHLWCPRDSDCLAGCVCEVWIQCG (designed binder) [N2L.EET31.32.13]             4.46
4  GCIKSHLWCPKTSDCEAGCICEVWIQCG (designed binder) [N2L.EET31.43.24]             5.46
5  GCIRSHVWCKQDSDCEAGCICEIWIQCG (designed binder) [N2L.EET31.43.43]             5.46
6  GCGWTLRHCKQDSDCLAGCVCRPIWYCG (designed binder) [N2L.EET03.10]             5.35
